Hello, the source for this data is BindingDB's records for doi:10.7270/Q2DB806H, in case you need it.

Measured log10 of IC50 on Dual specificity protein phosphatase 6 (Rattus norvegicus, UniProt Q64346) follows.
Sequence (Q64346 whole entry): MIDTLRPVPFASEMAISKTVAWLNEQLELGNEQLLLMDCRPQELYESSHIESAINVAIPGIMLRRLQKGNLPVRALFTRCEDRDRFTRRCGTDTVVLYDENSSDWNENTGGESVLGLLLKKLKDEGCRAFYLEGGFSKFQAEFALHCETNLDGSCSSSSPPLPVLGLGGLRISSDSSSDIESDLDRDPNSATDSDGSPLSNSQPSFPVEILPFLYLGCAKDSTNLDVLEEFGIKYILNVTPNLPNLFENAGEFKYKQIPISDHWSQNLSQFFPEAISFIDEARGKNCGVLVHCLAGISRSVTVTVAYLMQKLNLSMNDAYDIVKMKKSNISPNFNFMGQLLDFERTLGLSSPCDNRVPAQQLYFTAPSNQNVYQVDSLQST
Log scale reminder: IC50 in µM, then log10 taken.

{"Compound": "CCn1nc(-c2ccccc2)nc2c(=O)n(C)c(=O)nc1-2", "Endpoint Value": -0.21}

For the next question, use this compound.
[Q] Given `CCn1nc(-c2cccs2)nc2c(=O)n(C)c(=O)nc1-2` , report its log10 of IC50 on Dual specificity protein phosphatase 6 (Rattus norvegicus, UniProt Q64346).
[A] -0.20

* * *

- Assay Target: Dual specificity protein phosphatase 6 (Rattus norvegicus, UniProt Q64346)
List of IC50 values.

Field: example entries. Status: answers known.
{"Compound": "O=C(O)C1Nc2c(O)cccc2C2C=CCC12 (centres undefined)", "IC50": "> 50 µM"}
{"Compound": "O=C(Nc1ccc2nc(-c3ccco3)c(-c3ccco3)nc2c1)N1CCCCCC1", "IC50": "> 50 µM"}
{"Compound": "N#Cc1c(N)sc(=S)c2c1CCN(Cc1ccccc1)C2", "IC50": "2.74 µM"}
{"Compound": "O=C1C=Cc2ccccc2C1=O [1,2-dihydronaphthalene-1,2-dione]", "IC50": "> 50 µM"}
{"Compound": "Oc1nc(Nc2ccccc2)cc2ccccc12 [MLS000043701]", "IC50": "12.6 µM"}

[Q] Quote Dual specificity protein phosphatase 6 (Rattus norvegicus, UniProt Q64346) IC50 for entry CCOc1ccc2noc3c2c1C(=O)c1ccccc1-3 [MLS000106837] .
[A] > 50 µM

[Q] GET IC50 | system: Dual specificity protein phosphatase 6 (Rattus norvegicus, UniProt Q64346) | item: `[O-]/[N+](=C\c1ccncc1)c1ccccc1`
[A] > 50 µM

[Q] System Dual specificity protein phosphatase 6 (Rattus norvegicus, UniProt Q64346). Read-out IC50. Item `Cn1ncnc2c(=O)n(C)c(=O)nc1-2` . Report value.
[A] 0.433 µM

[Q] Look up and report IC50, with Dual specificity protein phosphatase 6 (Rattus norvegicus, UniProt Q64346) as system, for CCOC(=O)C(C(=O)OCC)c1cc(Br)c2noc3c2c1C(=O)c1ccccc1-3 [MLS000038842]
[A] > 50 µM
